# apparent Kd per record follows
Tested on: MS2 coat protein
Test: apparent Kd, MS2 coat protein; higher = weaker binding; RNA-MaP array; FMN 200 µM where present
Conditions: designed as: ON switch for flavin mononucleotide; no ligand
Report the value in nM with no unit label.

Known results for sequences:
GCGUAUUUAAUAUAUAUAAAACUGUCAGAAGGUGAUAAGACGACAUGAGGAUCACCCAUGUAAUUCAAGGAUAUGAUAAUGCGC ... 37.3
GCCUUCGCAUGAGGAUAUGCUCCGGUUUCCGGAGCAGAAGGCAUGUCAUAAGACAUGAGGAUCACCCAUGUAGUUAAGAAGGCA ... 570
CGCACUAUACAUGAGGAUCACCCAUGUUAAUAUGAGGUAGUCAGAAGGCAUUGUAUGAGAUAUUAUGAGGAUAUGAUUAGUGCG ... 226
GUUAACGCAUGAGGAUAUGCUCACAUUUCAAGAGCAGAAGGUAUGUCUAUAGACAUGAGGAUCACCCAUGUAUUUAUCAUUGAA ... 166
UUGGACGUCGUAGGAGAUGUAGGAUAUUCCUACAUGAGGAUCACCCAUGUUGACAUGGAAGAAGGACAGAAGGACGAUGUCCAU ... 294
GUCGGAAACGACAAAAGUAGCAUAGGAGAAGGUCCAUUAAACAUGAGGAUCACCCAUGUAAUUGGGAAGGAUAUCCUAUGCUAC ... 9.27
CGUAUAUGGGAGAAGGCAUGUCCCAAAGGGCCAUGAGGAUAUCCUAAGUGUACGCUUUGCGACAUGAGGAUCACCCAUGUAGCA ... 7.07
CUGUAGAUAUCAGGAUAUCUAUUUCCUACAUGAGGAUCACCCAUGUAGGUGAUCAGCCAAGUAAAGGAGAAGGGAUAUCUAUAG ... 38.5

Please report the recorded apparent Kd for ACCACGUUAGCGAUAUGAUCGAGAGAUCAUGUCGCUAAUUUUAGAAGGACAUGAGGAUCACCCAUGUAGGAUAUGGGACGUGGA .
14.7

Value lookup for apparent Kd; key = CAGCUACCCGAUAUGGGUUCAUGUGCAGAAGGCCAGGUACAUGAGGAUCACCCAUGUAAAGAUAUGGAGGAUAUGUUAGUGAAU
149

Requested read-out: apparent Kd. Entry: GGGUACAUCGCAGGAUAUCAUGUAAAUACAUGAGGAUCACCCAUGUCGAUGGAGACAUCGGAGAUUGAGAAGGCCGAUGUACCG
622

====

System: MS2 coat protein
Assay: apparent Kd, MS2 coat protein; higher = weaker binding; RNA-MaP array; theophylline 2 mM where present
Settings: ligand present: theophylline; designed as: OFF switch for theophylline
This listing pairs sequences with measured apparent Kd.
API: value field is a number in nM; no unit string.

GUAUGGAAACAUACUAGGGUAUCGUGAGAUACCAGUACAGAAAUGUACCCUUGGCAGCUCGCGCAUACAUGAGGAUCACCCAUGU ... 29.3
ACAUGAGGAUCACCCAUGUUCCUCGCCGAUACCAGUGAAGAAUUACGCCCUUGGCAGCGGAAUGAGUGUUUUGGAGAUGAGGUAC ... 107
AGACAUGAGGAUCACCCAUGUAGCAUGGAUACCAGAUGUAGAUUUAUCCCUUGGCAGCUGUGGUAAAGUGAUGCAUUGCUCCUAG ... 42.2

Sample CUUGUCGUAACUGAUACCAGUGUACUGACAUGAGGAUCACCCAUGUUGGGUUUUGUUGUACACCCUUGGCAGCAGAAUCGAUAAG — what was its apparent Kd?
121

Entry GAAACGUAGGUGGAGCGGUGAAAUGGCGAUACCAGCGUGGAAACAUGCCCUUGGCAGCGUUAGAACAUGAGGAUCACCCAUGUUU : reported apparent Kd = ?
58.2

Which measured apparent Kd value corresponds to GCUGGGUGCGCAAGGACCUGGCGUUGCGAUACCAGCACGGUAACGUGCCCUUGGCAGCGCACAUGAGGAUCACCCAUGUGGUGCG ?
329

====

Recorded apparent Kd by entry
Test system: MS2 coat protein
Assay: apparent Kd, MS2 coat protein; higher = weaker binding; RNA-MaP array
Settings: ligand present: flavin mononucleotide; designed as: ON switch for flavin mononucleotide
Answer by giving the amount and then stating its unit.

AUACAAGCAAUGGAGGAUAUCGCAGAAAUCACAUGAGGAUCACCCAUGUCUUACCGUAUGUCGAGCGAGAAGGCCACGGUGCGAGU ... 0.0173 µM
ACGGGUGACAAGAAGGGCUAGGUAACAUGCCGUAGACUAGAAUAACAUGAGGAUCACCCAUGUAAGCAGGAUAUUGUAUAAUAA ... 0.0528 µM
AACGGCUGCGCGUAGGAUAUGGCCCAUCCAACAUGAGGAUCACCCAUGUGCCACGAUGAGACUUCCCAGAAGGACGGUGCGAUGAG ... 0.0116 µM
AAACAUGAGGAUCACCCAUGUAGAAUAAUCAGACGUUUGAACAGAAGGUGAAAACAAAUAAAACUCAAGGAUAUGUAACUAAAA ... 0.0525 µM
AACAAAUGGGAAGGAUAUCGUUACAUGAGGAUCACCCAUGUCUACCUUGGGAGCGGUAGCUAUGUCGAGAAGGUCCAUGCGCGA ... 0.0841 µM
AGCAUGACAGCAGGAUAUGCGAACAGAAAUAGUGCAGAAGGGCUUUACACAUGAGGAUCACCCAUGUCCGCAAGGAUGCGUAUG ... 0.0194 µM

Below: the item to evaluate.
For the sequence shown here, AGGCUAUGUGAGAAGGCCGAAUGCCUAUAGUGCGGAGGAUAUCAAUCAACAUGAGGAUCACCCAUGUAGCAAAUCGUAGUUCUC , give the reported apparent Kd.
0.0601 µM

====

apparent Kd for assorted sequences
Tested on: MS2 coat protein
Assay: apparent Kd, MS2 coat protein; higher = weaker binding; RNA-MaP array
Details: ligand present: flavin mononucleotide; designed as: OFF switch for flavin mononucleotide
Only the number, expressed in nM, is required.

Below, 3 sequences whose answers are already recorded.
AUGUUCCGUUAGAAGGUGUUGAGUGGAGGCUCACAAGGAUAUAACUUCCUCGUCGAUGACAUGAGGAUCACCCAUGUAGCACAA ... 38.1
CAAAGUUUUAAGAAGGGAUCGAUUAGAUUCACAUGAGGAUCACCCAUGUAGCCGGGACGGAGAGAUCAGGAUAUUAAAGAUGUC ... 31.9
GAGUACAGGGAGAAGGUGUAUUAAUACGCACGGCUGGUCACAUGAGGAUCACCCAUGUCGCAUAACAAGGAUAUCCGACUAAUC ... 213

Can you look up apparent Kd on MS2 coat protein for AUGUAACAUGAGGAUCACCCAUGUAAGGAUAUGCAACAAAACUCUGAAUCGUAAGUUCGCAGAAGGUACAUUAG ?
27.3

Could you share what apparent Kd was measured for AUUAGAAUGCGAGGAUAUGGUAAAUUCAUGCAUCCAGAAGGCGCGUCAGUAGAACAUGAGGAUCACCCAUGUGAUUGUUGUGGC , tested on MS2 coat protein?
26.9

Could you share what apparent Kd was measured for AUGUUAAGACAGGAUAUCCAAGCUCUAGCGUCAGGAGAAGGGUCAACAUGAGGAUCACCCAUGUGUAGUCUUCG , tested on MS2 coat protein?
15.2

Kindly state the measured apparent Kd obtained for UAAAAGUUAGGAUAUACUAGUGAGCAAUGAAUAACAAAGUAACAUGAGGAUCACCCAUGUAGAAGGAACUGCAG with MS2 coat protein.
12.4

Enter reported apparent Kd observed with MS2 coat protein for GUUGGAUUUGUGAGGAUAUGGCCGUGACAUUUGGACCAGAAGGCACAUGAGGAUCACCCAUGUAUUGAAGAACG
53.4

apparent Kd of GAAUGGAAAGGAUAUCGCUGUUCUGACAUGAGGAUCACCCAUGUACGUGUUAGCUUGUUUCGAGAAGGUUCCACUC on MS2 coat protein?
21.8

For the record UAAGACGCAGGAUAUACAUGAGGAUCACCCAUGUGCAUACAAGUCAAGAGGUACAUAAGUAGAAGGGCGUGGAU , what value of apparent Kd is listed for MS2 coat protein?
14.7

Item GACAGCGAAGGAUAUACAUGAGGAUCACCCAUGUCUCACUAACGUAGCCGCGGGUAAUGUAGAAGGUCGCGAUG with MS2 coat protein - apparent Kd?
65.4

Form field: apparent Kd recorded for CCGAGCACAGGAUAUACAUGAGGAUCACCCAUGUAUACGAAUACGACACAUCCUGCGUGUAGAAGGGUGGCAAA with MS2 coat protein (enter value)
6.22

# query: apparent Kd | item GGUUAACAUGAGGAUCACCCAUGUUAGGAUAUGCUACAGAGUCUGGUCCCUGGAAAUGGCAGAAGGAACGUGUU | system: MS2 coat protein
16.2

Please state recorded apparent Kd (tested on MS2 coat protein) of UCCUAGCGACAGAAGGUAGGCAAGAGACGCCCUCAACGACAUGAGGAUCACCCAUGUGGGACCACUAAGGAUAUGUAUGCCGAC
66.5

Can you look up apparent Kd on MS2 coat protein for CGACAUUAAACAUGAGGAUCACCCAUGUGACCCUAUUGUCCAAAGGAUAUCUUAUGAAUAGAGAAAGAGAAGGUUGUAUUCCCA ?
196

Return apparent Kd measured with MS2 coat protein given this sequence: AUUGCCCAAGGAUAUCUAUUUAGAAACAUGAGGAUCACCCAUGUCAUAAUGUUAGGCUCAAGAGAAGGUGGAAGCU
8.37

Give apparent Kd (MS2 coat protein) of the following sequence: ACCCACAGAGGAUAUACAGCGAAACCUCAUAUUAAAUAUUCACAUGAGGAUCACCCAUGUAGAAGGCUGGAGAA
38.8

Hello, I am looking for reported apparent Kd with MS2 coat protein for UGAGAUAACGCAGGAUAUCAUGCGGCAGUGUAGUGAGAAGGGCGAAUGCAAGGGUCAGACAUGAGGAUCACCCAUGUUCAUAGC . Could you help?
12.5

What reported apparent Kd corresponds to AAAUGGAUCGAAGGAUAUCCCCAGACAUGAGGAUCACCCAUGUGAGGGUACAGUUAUUGUUAUCAGGAGAAGGUCGCAUUCAAA on MS2 coat protein?
9.5
